Kindly state TGI for each of the entries shown.
System: SF-268 CNS
assayProtocol: NCI tumour cell line growth inhibition, 48 h

>>> valueobserved("CCOc1cc2c(cc1O)/C(=N\\N)C[C@@H]1[C@@H]2CC[C@]2(C)[C@@H](O)CC[C@@H]12")
"> 44.9 µM"
>>> valueobserved("Cc1c2cc(Cl)ccc2n2c(=O)c3ccccc3[nH]c(=O)c12")
"> 100 µM"
>>> valueobserved("C1=C\\SS/C=C\\SS/C=C\\SS/C=C\\SS/1")
"> 100 µM"

Provide TGI values for the following items, in order.
1. CN(C)CCNc1ccc(C(=O)NCCCN(C)CCCNC(=O)c2ccc(NCCN(C)C)c3c(=O)c4ccccc4[nH]c23)c2[nH]c3ccccc3c(=O)c12
2. OCCOc1ccc(-c2cc(-c3ccccn3)nc(-c3ccccn3)c2)cc1
3. Cc1nc2ccc(CN(C)c3ccc(C(=O)N[C@@H](CCC(=O)O)C(=O)O)s3)cc2c(=O)[nH]1
4. Cc1c2cnccc2c(C)c2c1c1cc(C3OCCCO3)ccc1n2C

Response:
1. 0.544 µM
2. > 100 µM
3. > 100 µM
4. 1.71 µM

Please report TGI for every entry that follows.
1. O=C(c1ccc2ccccc2c1O)N1CCCCC1
2. O=C(O)c1ccccc1Cc1ccco1
3. CC12CC3C(CC1SCC(=O)O2)C3(C)C (stereo not given)

Response:
1: > 100 µM; 2: > 100 µM; 3: > 100 µM

====

Tested on: NCI-H460 lung
Can you answer with just one of these options? active, inactive

Completed entries (count: 4):
>>> classlabel("C=CC(=O)Nc1ccc(Nc2nccc(-c3ccc(N4CCCC4)c(C#N)c3)n2)cc1")
"inactive"
>>> classlabel("Cc1c2cc[nH]c(=O)c2c(C)c2c1[nH]c1cc(OCCN3CCN(C)CC3)ccc12")
"active"
>>> classlabel("CC(=O)N1CCN(C2=Nc3ccccc3CO2)C1=S")
"inactive"
>>> classlabel("COc1cc(/C(Cl)=C/C=C/C(=O)c2c(C)[n+]([O-])c3ccc(Cl)cc3[n+]2[O-])cc(OC)c1OC")
"inactive"

Pending compound:
Request: Hi, do you know how CC(=O)C1=C(O)C=C2Oc3c(C(=O)/C=C/c4cc(C(F)(F)F)cc(C(F)(F)F)c4)c(O)c(C)c(O)c3[C@]2(C)C1=O came out in this test?
Response: inactive

====

Tested on: UACC-62 melanoma
assayProtocol: NCI tumour cell line growth inhibition, 48 h
Exercise: state measured TGI for each of the compounds provided.

>>> valueobserved("O=C(O)CCCl")
"4740 µM"
>>> valueobserved("COc1cc2c(cc1OC)C13CCN4C=C5CCOC6CC(=O)N2C1C6C5CC43 (configuration not stated)")
"> 100 µM"
>>> valueobserved("O=C(Cn1c(=O)oc2ccc(C(=O)c3ccc(F)cc3)cc21)c1ccc([N+](=O)[O-])cc1")
"> 100 µM"
>>> valueobserved("Clc1ccc2c(SCC3CO3)c3ccccc3nc2c1 (configuration not stated)")
"> 100 µM"
>>> valueobserved("CC(=O)OCC1OC(Nc2[nH]c(=O)n(C)c(=O)c2-c2csc(N)n2)C(OC(C)=O)C(OC(C)=O)C1OC(C)=O (configuration not stated)")
"> 100 µM"
>>> valueobserved("COc1cccc(C2CC(c3cc(OC)c(OC)c(OC)c3)=NN2)c1 (configuration not stated)")
"> 100 µM"

// input: 3 compounds below; output: TGI for each
1. CCN(CC)CCNC(=O)c1ccccc1NC(=O)C(=O)Nc1ccccc1C(=O)NCCN(CC)CC
2. CN1C(=O)c2c(ccc3c2OCO3)C2C(O)Cc3cc4c(cc3C21)OCO4 (configuration not stated)
3. COc1c2cc([N+](=O)[O-])cc1CNC(=O)CN1CCOCCOCCN(CCOCCOCC1)CC(=O)NC2

Response:
1. > 100 µM
2. > 100 µM
3. > 100 µM

Would you mind giving TGI for every compound in the list below?
1. Nc1ncnc2c1ncn2C1OC(COP(=O)(O)CP(=O)(O)O)C(O)C1O (configuration not stated)
2. Cc1cccc(C(=O)c2cccc3ccccc23)c1C(=O)O
3. C(=Nc1ccccc1)C1CCCC[N-]1.C(=Nc1ccccc1)C1CCCC[N-]1.[Cu+2].[O-][Cl+3]([O-])([O-])O (configuration not stated)
4. CCOc1ccc(NC(=O)CC2SC(=Nc3ccc(Cl)cc3)NC2=O)cc1 (configuration not stated)

Response:
> 100 µM
> 100 µM
22.8 µM
> 100 µM

Provide each entry's TGI from the list below.
1. COc1ccc2c(c1)C(=O)c1c-2n(CCCN)c(=O)c2ccccc12
2. CC(C)=CCN=C(N)N
3. Cc1nc2sccn2c1/C=C1/C(=O)Nc2ccccc21
4. N#C/C(=C\c1ccccc1O)C(N)=O
5. FC(F)(F)c1ccc(-c2nc(-c3nc4cc(Cl)c(Cl)cc4[nH]3)c3ccccn23)cc1
6. c1ccc(SC2(Sc3ccccc3)CCCC2)cc1
7. CC(=O)N1CCN(C2=Nc3ccccc3CO2)C1=S

Response:
["1.21 µM", "> 100 µM", "21.2 µM", "> 100 µM", "> 100 µM", "> 100 µM", "> 100 µM"]

Each compound below has a reported value. Please supply its TGI.
1. COc1cccc([C@H]2CC(=O)c3cc4c(cc3N2)OCO4)c1
2. CC1(C)O[C@H]2Cn3c(c(C#N)c4ccccc43)[C@H]2O1
3. CCSc1nnc2c(-c3ccccc3)n[nH]c2n1
4. COc1cccc2c1OC1c3ccccc3OCC1C2 (configuration not stated)
5. O=C(CP(c1ccccc1)c1ccccc1)c1cccc(C(=O)CP(c2ccccc2)c2ccccc2)c1
6. CCOc1ccc2nc(NC(=O)C(=O)C(C(=O)c3ccccc3-c3ccccc3)C3OC(=O)c4ccccc43)sc2c1 (configuration not stated)
7. Cc1c2cnccc2c(C)c2c1c1cc(C3OCCCO3)ccc1n2C

Response:
1: 0.0965 µM; 2: > 100 µM; 3: > 100 µM; 4: > 100 µM; 5: > 100 µM; 6: 34.8 µM; 7: 0.747 µM

====

Test system: NCI/ADR-RES ovarian
assayProtocol: NCI tumour cell line growth inhibition, 48 h
quantity: TGI

For orientation, consider the following solved cases.
>>> valueobserved("O=C(c1ccc2ccccc2c1O)N1CCCCC1")
"> 100 µM"
>>> valueobserved("CC(=O)NC1C(OCc2ccccc2)OC(CO)C(O)C1OCC(=O)NC(C)C(=O)NC(CCC(=O)NCCCCNc1ccc([N+](=O)[O-])c2[nH]c3ccccc3c(=O)c12)C(N)=O (configuration not stated)")
"> 100 µM"
>>> valueobserved("COc1cccc(C2CC(c3cc(OC)c(OC)c(OC)c3)=NN2)c1 (configuration not stated)")
"27.4 µM"
>>> valueobserved("O=C(O)[C@H]1[C@@H](C2CCCCC2)O[C@@H](C2CCCCC2)O[C@H]1C(F)(F)F")
"> 100 µM"
>>> valueobserved("COC(=O)c1c2c(cc3c1CC1(Cc4ccccc4C1=O)C3)CCC2 (configuration not stated)")
"79.3 µM"

Give me TGI for each of these compounds, listed below.
1. Cc1ccc(C2CC(=O)CC(c3ccc(C)cc3)C23C(=O)NC(=O)NC3=O)cc1 (configuration not stated)
2. CN1C/C(=C\c2cccs2)C2=NC(=S)NC(c3cccs3)C2C1 (configuration not stated)
3. Cc1ccc(C)n1-c1ccccc1C1SCCCS1
4. CCC(C)[C@@H](NCc1ccccc1)[C@H](OCc1ccccc1)[C@@H]1COC(C)(C)O1 (some centres not stated)

Response:
1: > 100 µM; 2: > 100 µM; 3: > 100 µM; 4: 55.3 µM

Would you mind giving TGI for every compound in the list below?
1. O=C1c2c(F)c(F)c(F)c(F)c2SC2=NCCN12
2. O=C1c2ccccc2C2CNC1(O)c1ccccc12 (configuration not stated)
3. CC1(C)O[C@H]2Cn3c(c(C#N)c4ccccc43)[C@H]2O1
4. CCSc1nnc2c(-c3ccccc3)n[nH]c2n1
5. O=C(/C=C/c1ccc(B(O)O)cc1)/C=C/c1ccc(B(O)O)cc1
6. COc1cc(-c2nn3c(/C=C4/C(=O)Nc5ccccc54)c(-c4ccc(C)cc4)nc3s2)cc(OC)c1OC
7. COc1cccc2c1OC1c3ccccc3OCC1C2 (configuration not stated)
8. COc1cc(/C=C/C(=O)OCC23CC[C@@]4(C(=O)O)CCC(C)[C@H](C)C4C2=CCC2[C@@]4(C)CC[C@H](O)C(C)(C)C4CC[C@]23C)ccc1O (some centres not stated)

Response:
1. 31.3 µM
2. > 100 µM
3. > 100 µM
4. > 100 µM
5. 62.9 µM
6. > 100 µM
7. > 100 µM
8. 44.9 µM

Could you tell me TGI for each of these compounds? They are listed below.
1. COc1ccc2c(c1)C(=O)c1c-2n(CCCN)c(=O)c2ccccc12
2. CCc1nn(CN2CCN(C)CC2)c(=S)n1/N=C\c1ccc(-c2ccc([N+](=O)[O-])cc2)o1

Response:
1: 1.95 µM; 2: 73.2 µM
